Provenance of the data: patent US20170058314A1

- Tested on: stationary phase B. burgdorferi persisters (strain B31)
- Experimental Details: SYBR Green I/PI viability assay (plate reader), FDA-approved drug library screen
- Study Conditions: Borreliella burgdorferi, 168 h, read-out: Residual viable cells (regression equation, SYBR Green I/PI assay)
Structures can show the parent of a compound that is named as a salt.

{"Compound": "CO/N=C(\\C(=O)N[C@@H]1C(=O)N2C(C(=O)O)=C(COC(N)=O)CS[C@H]12)c1ccco1 [Cefuroxime]", "Units": "%", "viability at 50 µM": 43}
{"Compound": "Cn1nnnc1SCC1=C(C(=O)O)N2C(=O)[C@@H](NC(=O)[C@H](O)c3ccccc3)[C@H]2SC1 [Cefamandole]", "Units": "%", "viability at 50 µM": 50}
{"Compound": "O=C(O)C1=C(CSc2nnnn2CS(=O)(=O)O)CS[C@@H]2[C@H](NC(=O)[C@H](O)c3ccccc3)C(=O)N12 [Cefonicid]", "Units": "%", "viability at 50 µM": 46}
{"Compound": "C=C[C@H]1C[N@@]2CC[C@H]1C[C@H]2[C@H](O)c1ccnc2ccc(OC)cc12 [Quinine hydrobromide]", "Units": "%", "viability at 50 µM": 50}
